Where do these numbers come from? They come from patent EP1247803A2.

test system: MET; assay: MET biochemical kinase assay; set-up: species or system human; concentration or dose not given beside the values
// class assignment uses Met Kinase % Inhibition with these ranges: class 0 (below 30%), class 1 (30% to below 70%), class 2 (70% or more)

* COc1ccc(C=C2C(=O)Nc3ccc(I)cc32)c(OC)c1OC | class 1
* COc1cccc(C=C2C(=O)Nc3ccc(S(=O)(=O)Nc4ccc(C(F)(F)F)cc4)cc32)c1OC | class 0
* COc1c(I)cc(C=C2C(=O)Nc3c(Br)cc(Br)cc32)cc1C(C)(C)C | class 1
* COc1cccc(OC)c1C=C1C(=O)Nc2ccc(Br)c(C)c21 | class 0
* O=C1Nc2ccc(CCCl)cc2C1=Cc1ccc(O)c(O)c1O | class 2
* O=C1Nc2ccc(I)cc2C1=Cc1coc2ccc([N+](=O)[O-])cc2c1=O | class 1
* CNS(=O)(=O)c1ccc2c(c1)C(=Cc1ccc(O)cc1OC)C(=O)N2 | class 1
* O=C1Nc2ccc(CCCl)cc2C1=Cc1ccco1 | class 0
* COc1c(O)ccc(C=C2C(=O)Nc3ccc(CCCl)cc32)c1[N+](=O)[O-] | class 1
* COc1cc(Br)c(O)c(C=C2C(=O)Nc3c(Br)cc(Br)cc32)c1 | class 2
* CCc1cc(CC)c(C=C2C(=O)Nc3ccc(S(=O)(=O)NC)cc32)[nH]1 | class 0
* O=C1Nc2ccc(S(=O)(=O)N3CCOCC3)cc2C1=Cc1ccc(Br)o1 | class 1
* Cc1c(Br)ccc2c1C(=Cc1c[nH]c(=O)[nH]c1=O)C(=O)N2 | class 0
* CCCCN(CCCC)c1ccc(C=C2C(=O)Nc3c(Br)cc(Br)cc32)cc1 | class 2
* CNS(=O)(=O)c1ccc2c(c1)C(=Cc1cc(O)c3c(c1O)CCCC3)C(=O)N2 | class 2
* CNS(=O)(=O)c1ccc2c(c1)C(=Cc1cccc(Br)c1)C(=O)N2 | class 1
* COc1ccc(C=C2C(=O)Nc3ccc(S(=O)(=O)Nc4ccc(C(F)(F)F)cc4)cc32)c(OC)c1OC | class 0
* Cc1ccsc1C=C1C(=O)Nc2ccc(S(=O)(=O)Nc3ccc(C(F)(F)F)cc3)cc21 | class 0
* O=C1Nc2ccc(CCCl)cc2C1=Cc1cc(O)c(O)c(Br)c1 | class 2
* CC(C)(C)c1cc(C=C2C(=O)Nc3ccc(S(=O)(=O)Nc4ccc(C(F)(F)F)cc4)cc32)cc(Br)c1O | class 1
* CNS(=O)(=O)c1ccc2c(c1)C(=Cc1cc3c4c(c1O)CCCN4CCC3)C(=O)N2 | class 1
* O=C1Nc2ccc(S(=O)(=O)N3CCOCC3)cc2C1=Cc1c[nH]c(=O)[nH]c1=O | class 0
* COC(=O)Cc1c(Cl)[nH]c(C=C2C(=O)Nc3ccc(S(=O)(=O)N4CCOCC4)cc32)c1C(=O)OC | class 1
* CNS(=O)(=O)c1ccc2c(c1)C(=Cc1ccc(Cl)c([N+](=O)[O-])c1)C(=O)N2 | class 0
* CC(C)c1ccc2occ(C=C3C(=O)Nc4c(Br)cc(Br)cc43)c(=O)c2c1 | class 2
* CCc1c(C)[nH]c(C=C2C(=O)Nc3ccc(I)cc32)c1C | class 1
* O=C1Nc2ccc(CCCl)cc2C1=Cc1csc([N+](=O)[O-])c1 | class 1
* O=C(O)COc1ccccc1C=C1C(=O)Nc2ccc(I)cc21 | class 2
* Cc1cc(O)cc(O)c1C=C1C(=O)Nc2ccc(Br)c(C)c21 | class 1
* CNS(=O)(=O)c1ccc2c(c1)C(=Cc1ncc[nH]1)C(=O)N2 | class 0
* Cc1cn(C)cc1C=C1C(=O)Nc2ccc(CCCl)cc21 | class 0
* O=C1Nc2ccc(S(=O)(=O)N3CCOCC3)cc2C1=Cc1cc([N+](=O)[O-])ccc1O | class 0
* COc1cccc(C=C2C(=O)Nc3ccc(Br)c(C)c32)c1O | class 2
* CCOc1ccc(C=C2C(=O)Nc3ccc(I)cc32)cc1OC | class 1
* O=C1Nc2ccc(I)cc2C1=Cc1cccs1 | class 2
